Quick reference: GI50 of the listed items.
- Test system: A498 renal
- PROTOCOL_SUMMARY: NCI tumour cell line growth inhibition, 48 h

{"MOLECULE": "COc1ccc(C(=O)COc2cccc(/C=C3\\Oc4ccc5ccccc5c4C3=O)c2)cc1", "MEASURED_PARAMETER": "GI50", "RESULT_VALUE": "20.6 µM"}
{"MOLECULE": "NC(N)=NCCCCCNc1noc(Cc2c[nH]c3cc(Br)ccc23)n1", "MEASURED_PARAMETER": "GI50", "RESULT_VALUE": "> 100 µM"}

I have this molecule here, C[C@]12CCc3nc(Nc4ccccc4)sc3C1=CC[C@@H]1[C@@H]2CC[C@]2(C)/C(=N/NC(N)=S)CC[C@@H]12 , and I need its recorded GI50.
1.39 µM

I have this molecule here, COc1ccc(-c2oc3cc(O)c(OC)c(O)c3c(=O)c2OC)cc1O , and I need its recorded GI50.
0.21 µM

I have this molecule here, CC(=O)O[C@H](C[C@H](C(C)C)N(C)C(=O)[C@@H](NC(=O)[C@H]1CCCCN1C)C(C)C)c1nc(C(=O)N[C@@H](Cc2ccccc2)C[C@H](C)C(=O)O)c(CCOCc2ccccc2)s1 , and I need its recorded GI50.
< 0.001 µM

I have this molecule here, COc1ccc2c(c1)C(C)Cc1c(ncnc1-n1c(C)nc3ccccc31)N2C (centres undefined) , and I need its recorded GI50.
2.15 µM

I have this molecule here, O=[N+]([O-])c1ccc2c(c1)C(c1ccccc1Cl)=Nc1cn[nH]c1N2 , and I need its recorded GI50.
8.27 µM

I have this molecule here, Cc1cn2c(/C=C3\C(=O)N(C)c4ccc(O)cc43)c(C)nc2s1 , and I need its recorded GI50.
21.6 µM

I have this molecule here, CCn1c(CO)nn(-c2cc(O[C@@H](C)C(F)(F)F)c(C(=O)Nc3c(F)cccc3Cl)cc2F)c1=O , and I need its recorded GI50.
3.84 µM
